systemTested: HLA-A*02:01
measurementNotes: IEDB peptide-MHC binding, cellular MHC/competitive/fluorescence; filed as Kd, often an IC50 or EC50 that approximates it; bounds were set here for any values at or beyond the usual limits of such assays
testParameters: source organism: Homo sapiens
pKd: −log10 of the molar value.
measurementType: pKd

Quick one: pKd of KLVVVGAGGV ?
≤ 3.81

* * *

systemTested: HLA-A*02:01
measurementNotes: IEDB peptide-MHC binding, purified MHC/direct/fluorescence; filed as Kd, often an IC50 or EC50 that approximates it; bounds were set here for any values at or beyond the usual limits of such assays
testParameters: source organism: SARS-CoV1
measurementType: Kd (µM)
Dear colleague, please return just the value in µM, with no unit written.

| sequenceChain | unitSpec | Kd |
| --- | --- | --- |
| GLMWLSYFV | µM | 3.19 |

Could you now consider this next sequence?
Endpoint output: Kd of FMGRIRSVY . Value?
9.16
